Test system UniProt:P19111, pIC50 listed for each of the molecules.
Sequence (P19111 whole entry): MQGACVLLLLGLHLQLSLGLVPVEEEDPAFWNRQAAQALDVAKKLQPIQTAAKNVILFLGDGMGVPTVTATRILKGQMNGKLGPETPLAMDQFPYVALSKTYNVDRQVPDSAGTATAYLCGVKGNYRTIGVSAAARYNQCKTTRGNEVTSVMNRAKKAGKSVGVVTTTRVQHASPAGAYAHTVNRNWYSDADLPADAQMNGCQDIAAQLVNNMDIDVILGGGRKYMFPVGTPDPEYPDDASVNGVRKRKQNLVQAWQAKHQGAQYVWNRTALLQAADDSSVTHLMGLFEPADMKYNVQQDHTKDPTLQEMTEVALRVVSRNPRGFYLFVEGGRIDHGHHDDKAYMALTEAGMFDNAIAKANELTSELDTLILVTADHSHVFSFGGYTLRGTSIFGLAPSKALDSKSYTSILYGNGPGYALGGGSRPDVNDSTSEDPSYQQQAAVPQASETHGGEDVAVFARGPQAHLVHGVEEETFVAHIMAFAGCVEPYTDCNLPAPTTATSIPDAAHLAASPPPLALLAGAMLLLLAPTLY
pIC50: −log10 of the molar value.

{"columns": ["SMILES DATA", "pIC50"],
 "data": [
  ["COc1ccc(/C=C/C(=O)/C(=N/Nc2ccc(S(N)(=O)=O)cc2)N2CCOCC2)cc1", 5.77],
  ["NS(=O)(=O)c1ccc(N/N=C(/C(=O)/C=C/c2ccccc2Br)N2CCOCC2)cc1", 5.92],
  ["NS(=O)(=O)c1ccc(N/N=C(/C(=O)/C=C/c2ccccc2Cl)N2CCOCC2)cc1", 6.92],
  ["NS(=O)(=O)c1ccc(N/N=C(/C(=O)/C=C/c2cccc(F)c2)N2CCOCC2)cc1", 6.14],
  ["NS(=O)(=O)c1ccc(N/N=C(/C(=O)/C=C/c2ccc(Cl)cc2Cl)N2CCOCC2)cc1", 6.17],
  ["COc1cc(/C=C/C(=O)/C(=N/Nc2ccc(S(N)(=O)=O)cc2)N2CCOCC2)cc(OC)c1OC", 5.59]
]}
